Just for reference, patent US20260008770A1 is where these values come from.

Biological target: Cbl-b protein (CBL-B, GST-Tag) (Homo sapiens (Human))
Experiment: HTRF based binding assay, affinity to Cbl-b protein
Conditions: HTRF binding, CBL-B (GST-Tag), fluorescence labeled Cbl-b binding probe
pIC50: −log10 of the molar value.
observation_type: pIC50

1. [2H]c1nnc(C2(c3ccnc(-n4cnc5c(C(F)(F)F)cc(CN6CCC[C@H](C)C6)cc5c4=O)c3)CC(C)C2)n1C(F)F (stereo partly drawn)    > 7.70
2. C=Cc1cc(C2(c3nncn3C)CC(C)C2)cc(-n2cnc3c(C(F)(F)F)cc(CN4CCC[C@H](C)C4)cc3c2=O)n1 (stereo partly drawn)    > 7.70
3. CC1CC(c2cccc(-n3ncc4c(C(F)(F)F)cc(CN5CCC(F)(F)[C@@H](C)C5)cc4c3=O)c2)(c2nncn2C)C1 (stereo partly drawn)    < 6.00

###

Biological target: Cbl-b protein (CBL-B, GST-Tag) (Homo sapiens (Human))
Test: HTRF based binding assay, affinity to Cbl-b protein
Settings: HTRF binding, CBL-B (GST-Tag), fluorescence labeled Cbl-b binding probe
IC50 for assorted compounds
observation_type: IC50

1. C[C@H]1CCCN(Cc2ccc3ncn(-c4cc([C@]5(c6nncn6C(F)F)C[C@@H](C)C5)cc(OCF)n4)c(=O)c3c2)C1    < 20 nM
2. C[C@H]1CCCN(Cc2ccc3ncn(-c4cc([C@]5(c6nncn6C)C[C@@H](C)C5)cc(OCF)n4)c(=O)c3c2)C1    < 20 nM
3. C=C(F)c1cc([C@]2(c3nncn3C)C[C@@H](C)C2)cc(-n2cnc3c(C(F)(F)F)cc(CN4CCC[C@H](C)C4)cc3c2=O)n1    < 20 nM
4. COc1cc([C@]2(c3nncn3C)C[C@@H](C)C2)cc(-n2cnc3c(C(F)(F)F)cc(CN4CCC[C@H](C)C4)cc3c2=O)n1    < 20 nM
5. C[C@H]1CCCN(Cc2cc(C(=O)Nc3cccc([C@@H](c4nncn4C)C4COC4)c3)cc(C(F)(F)F)c2)C1    > 1000 nM
6. C[C@H]1CCCN(Cc2cc(C(F)(F)F)c3cn(-c4cc(C5(Cc6nncn6C)COC5)cc5c4OCC5)nc3c2)C1    < 20 nM

###

Molecular target: Cbl-b protein (CBL-B, GST-Tag) (Homo sapiens (Human), UniProt Q13191)
Sequence (Q13191 whole entry): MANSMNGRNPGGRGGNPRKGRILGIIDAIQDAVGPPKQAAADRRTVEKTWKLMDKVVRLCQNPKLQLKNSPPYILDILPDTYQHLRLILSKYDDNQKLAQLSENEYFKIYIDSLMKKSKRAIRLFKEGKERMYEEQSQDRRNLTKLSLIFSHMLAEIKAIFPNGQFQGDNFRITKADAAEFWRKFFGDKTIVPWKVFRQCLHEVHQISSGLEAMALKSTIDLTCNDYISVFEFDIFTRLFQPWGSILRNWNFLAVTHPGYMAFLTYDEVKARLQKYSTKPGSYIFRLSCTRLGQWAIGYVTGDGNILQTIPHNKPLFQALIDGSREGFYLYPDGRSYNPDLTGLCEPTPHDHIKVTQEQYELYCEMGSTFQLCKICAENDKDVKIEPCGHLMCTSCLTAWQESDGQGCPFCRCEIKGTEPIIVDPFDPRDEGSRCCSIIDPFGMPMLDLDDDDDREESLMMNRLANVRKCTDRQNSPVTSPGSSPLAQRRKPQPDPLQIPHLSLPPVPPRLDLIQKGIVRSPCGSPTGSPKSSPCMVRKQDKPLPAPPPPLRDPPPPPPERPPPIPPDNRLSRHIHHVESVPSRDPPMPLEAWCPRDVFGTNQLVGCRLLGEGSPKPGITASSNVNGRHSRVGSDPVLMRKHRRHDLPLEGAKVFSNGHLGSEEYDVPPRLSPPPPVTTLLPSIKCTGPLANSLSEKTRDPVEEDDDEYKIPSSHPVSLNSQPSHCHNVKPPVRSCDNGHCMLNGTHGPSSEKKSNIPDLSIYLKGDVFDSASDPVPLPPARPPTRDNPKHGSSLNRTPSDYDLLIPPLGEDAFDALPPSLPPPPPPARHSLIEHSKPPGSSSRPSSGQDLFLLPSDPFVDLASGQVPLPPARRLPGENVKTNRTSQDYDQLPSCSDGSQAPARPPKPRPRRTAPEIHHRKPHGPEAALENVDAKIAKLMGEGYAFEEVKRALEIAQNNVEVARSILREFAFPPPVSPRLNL
Assay: HTRF based binding assay, affinity to Cbl-b protein
observation_type: IC50

1) CCc1cc([C@]2(c3nncn3C)C[C@@H](C)C2)cc(-n2cnc3ccc(CN4CCC[C@H](C)C4)cc3c2=O)n1    20 to 50 nM
2) Cn1cnnc1[C@]1(c2ccnc(-n3ncc4c(C(F)(F)F)cc(CN5CCC6(CC6)C5)cc4c3=O)c2)C[C@H](C)C1    20 to 50 nM
3) C[C@H]1CCCN(Cc2cc(C(F)(F)F)c3ncn(-c4cccc(C5(c6nncn6C)CC(=O)C5)c4)c(=O)c3c2)C1    50 to 500 nM
4) CC1=CCCN(Cc2cc(C(F)(F)F)c3cn(-c4cccc(C5(c6nncn6C)CC(C)C5)c4)nc3c2)C1 (stereo not shown)    20 to 50 nM
5) CC1CC(c2cc(F)nc(-n3cnc4c(C(F)(F)F)cc(CN5CCC[C@H](C)C5)cc4c3=O)c2)(c2nncn2C)C1 (stereo partly shown)    20 to 50 nM
6) CC1CC(c2cc(Cl)nc(-n3cnc4c(C(F)(F)F)cc(CN5CCC[C@H](C)C5)cc4c3=O)c2)(c2nncn2C)C1 (stereo partly shown)    20 to 50 nM
7) C[C@H]1CCCN(Cc2cc3c(=O)n(-c4cccc([C@]5(c6nncn6C)C[C@@H](C)C5)c4)cnc3c(C(F)(F)F)n2)C1    20 to 50 nM
8) C[C@H]1CCCN(Cc2cc(C(F)(F)F)c3cnn(-c4cc([C@]5(c6nncn6C)C[C@@H](C)C5)ccn4)c(=O)c3c2)C1 (single isomer, unassigned)    500 to 1000 nM
9) CC1CC(c2cccc(-n3cc4c(C(F)(F)F)cc(CN5CCC[C@@](C)(O)C5)cc4n3)c2)(c2nncn2C)C1 (stereo partly shown)    50 to 500 nM
10) C[C@H]1CCCN(Cc2cc(C(F)(F)F)c3cn(-c4cccc(C5(c6nncn6C)CC(=O)C5)c4)nc3c2)C1    50 to 500 nM
11) CC1CC(c2cccc(-c3nc4cc(CN5CCC[C@H](C)C5)cc(C(F)(F)F)c4[nH]3)c2)(c2nncn2C)C1 (stereo partly shown)    50 to 500 nM
12) CC1CC(c2cncc(-n3ncc4c(C(F)(F)F)cc(CN5CCC[C@H](C)C5)cc4c3=O)c2)(c2nncn2C)C1 (stereo partly shown)    50 to 500 nM
13) C[C@H]1CCCN(Cc2cc(C(F)(F)F)c3ncn(-c4cc([C@]5(c6nncn6C)C[C@@H](CF)C5)ccn4)c(=O)c3c2)C1    20 to 50 nM

###

Biological target: Cbl-b protein (CBL-B, GST-Tag) (Homo sapiens (Human), UniProt Q13191)
Test: HTRF based binding assay, affinity to Cbl-b protein
pIC50: −log10 of the molar value.
observation_type: pIC50

1. CC1CC(c2cccc(-c3nc4cc(CN5CCO[C@H](C)C5)cc(C(F)(F)F)c4s3)c2)(c2nncn2C)C1 (stereo partly shown)    6.30 to 7.30
2. CC1CC(c2cccc(-c3nc4cc(CN5CCC[C@H](C)C5)cc(C(F)(F)F)c4n3C)c2)(c2nncn2C)C1 (stereo partly shown)    6.30 to 7.30
3. [2H]C([2H])([2H])n1cnnc1C1(c2ccnc(-n3cnc4c(C(F)(F)F)cc(CN5CCC[C@H](C)C5)cc4c3=O)c2)CC(C)C1 (stereo partly shown)    > 7.70
4. CC1CC(c2cccc(N3CCc4c(cc(CN5CC[C@H](F)C5)cc4C(F)(F)F)C3=O)c2)(c2nncn2C)C1 (stereo partly shown)    6.30 to 7.30

###

Target: Cbl-b protein (CBL-B, GST-Tag) (Homo sapiens (Human), UniProt Q13191)
Test: HTRF based binding assay, affinity to Cbl-b protein
observation_type: IC50

1) CC1CC(c2cc(CO)cc(-n3cc4c(C(F)(F)F)cc(CN5CCC[C@H](C)C5)cc4n3)c2)(c2nncn2C)C1 (stereo partly shown)    50 to 500 nM
2) CC1CC(c2cccc(-n3nc(C(F)(F)F)c4ccc(CN5CCC[C@H](C)C5)cc4c3=O)c2)(c2nncn2C)C1 (stereo partly shown)    50 to 500 nM
3) C[C@H]1CCCN(Cc2cc(C(F)(F)F)c3ncn(-c4cccc(C5(Cc6nncn6C)COC5)c4)c(=O)c3c2)C1    500 to 1000 nM
4) CC1CN(Cc2cc(C(F)(F)F)c3ncn(-c4cc([C@]5(c6nncn6C)C[C@@H](C)C5)ccn4)c(=O)c3c2)CCC1(F)F (stereo partly shown)    20 to 50 nM
5) C#C[C@H]1CCCN(Cc2cc(C(F)(F)F)c3ncn(-c4cc([C@]5(c6nncn6C)C[C@@H](C)C5)ccn4)c(=O)c3c2)C1    20 to 50 nM
6) CC1CC(c2cccc(-c3n[nH]c4c(CN5CCC[C@H](C)C5)cc(C(F)(F)F)nc34)c2)(c2nncn2C)C1 (stereo partly shown)    50 to 500 nM
7) CC1CC(c2cncc(-n3cc4c(C(F)(F)F)cc(CN5CCC[C@H](C)C5)cc4n3)c2)(c2nncn2C)C1 (stereo partly shown)    20 to 50 nM
